// data source = a collection of fitness landscapes (doi:10.1016/j.celrep.2020.107928)

B1: Caulobacter ParB omega fusion; a variant is named by its letters at X, in order, B8GW30 (parent)
chain: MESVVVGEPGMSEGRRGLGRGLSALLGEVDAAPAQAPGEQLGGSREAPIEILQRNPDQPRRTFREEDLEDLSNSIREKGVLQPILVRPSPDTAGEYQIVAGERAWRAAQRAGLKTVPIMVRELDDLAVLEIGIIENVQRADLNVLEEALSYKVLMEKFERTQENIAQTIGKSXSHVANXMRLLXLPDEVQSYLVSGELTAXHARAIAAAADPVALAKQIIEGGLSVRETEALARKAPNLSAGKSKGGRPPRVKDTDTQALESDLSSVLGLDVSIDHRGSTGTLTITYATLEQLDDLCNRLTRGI

# Variants of: B1
# assay_protocol: one-hybrid fitness for binding parS DNA (scaled: cognate 1, non-cognate 0); higher = stronger binding
# test_context: with parS DNA site
The full ranking holds about 81,000 sequences; the median of “one-hybrid fitness for binding parS DNA” is about -0.17, and the highest 2% start at about 0.51. Shown is part of a subset that was picked to be rich in the highest values.
In this section, each of the variants is paired with its reported one-hybrid fitness for binding parS DNA.

Solved cases (3 shown):
{"variant_description": "KHAR", "assay_result": "≤ 0.2"}
{"variant_description": "RLMQ", "assay_result": "≤ 0.2"}
{"variant_description": "RKAK", "assay_result": "≤ 0.2"}

Input: State the recorded one-hybrid fitness for binding parS DNA for this entry: RLMT
Output: 0.955

Input: State the recorded one-hybrid fitness for binding parS DNA for this entry: ADTW
Output: ≤ 0.2

Input: State the recorded one-hybrid fitness for binding parS DNA for this entry: IYRT
Output: ≤ 0.2

Input: State the recorded one-hybrid fitness for binding parS DNA for this entry: RIMF
Output: 0.247

Input: State the recorded one-hybrid fitness for binding parS DNA for this entry: RFMT
Output: 0.754

Input: State the recorded one-hybrid fitness for binding parS DNA for this entry: RFMF
Output: 0.245

Input: State the recorded one-hybrid fitness for binding parS DNA for this entry: RKAT
Output: 0.818

Input: State the recorded one-hybrid fitness for binding parS DNA for this entry: PFSC
Output: ≤ 0.2

Input: State the recorded one-hybrid fitness for binding parS DNA for this entry: RIMT
Output: 0.878

Input: State the recorded one-hybrid fitness for binding parS DNA for this entry: HDLT
Output: ≤ 0.2

Input: State the recorded one-hybrid fitness for binding parS DNA for this entry: EHCS
Output: ≤ 0.2

Input: State the recorded one-hybrid fitness for binding parS DNA for this entry: RIMK
Output: ≤ 0.2

Input: State the recorded one-hybrid fitness for binding parS DNA for this entry: VARP
Output: ≤ 0.2

Input: State the recorded one-hybrid fitness for binding parS DNA for this entry: SNHT
Output: ≤ 0.2

Input: State the recorded one-hybrid fitness for binding parS DNA for this entry: REMT
Output: ≤ 0.2
